# SYSTEM: H. sapiens SLC2A9 variant 2 (GLUT9B) (Homo sapiens)
# ASSAY_TEXT: GLUT9 functional assay: uric acid uptake in HEK293T cells, allantoin formation by MS/MS as proxy of GLUT9B inhibition
# Assay type: cell-based
# ASSAY_SETUP: 15 minute assay; HEK293T cells stably expressing GLUT9B and transiently A. oryzae uricase; uric acid 0.3 mM, 37° C.; read-out: 15 min IC50
EXPERIMENTAL_READOUT: IC50

Answered examples (3):
- CCCCc1cnc(-c2ccc3c(c2)OCO3)c(N2CCC(C(=O)O)CC2)n1: < 0.5 µM
- COCCCCc1cnc(-c2ccc3c(c2)OCO3)c(N2CCC(C(=O)O)CC2)n1: < 0.5 µM
- CCCCc1cnc(-c2ccc(OC)cc2)c(-c2ccc(C(=O)O)nc2)c1: > 2 µM

Hi team, please reply with IC50 for each item in this list.
1. CCCCc1cnc(-c2ccc(OC)cc2)c(-c2ncc(C(=O)O)s2)c1
2. O=C(O)C1CCN(c2nc(CCCC(F)F)cnc2-c2ccc3c(c2)CCO3)CC1
3. CCCCc1cnc(-c2ccc(S(C)(=O)=O)cc2)c(N2CCC(C(=O)O)CC2)n1
4. CCCCc1cnc(-c2ccc3c(c2)C(=O)CO3)c(N2CCC(C(=O)O)CC2)n1
5. O=C(O)C1CCN(c2nc(CCCC(F)F)cnc2-c2ccc3c(c2)OCO3)CC1
6. O=C(O)C1CCN(c2nc(CCCCC(F)(F)F)cnc2-c2ccc3c(c2)OCO3)CC1
7. O=C(O)CC1CN(c2nc(CCC(F)(F)F)cnc2-c2cc(F)c3occc3c2)C1
8. COCCOc1ccc(-c2ncc(CCC(F)(F)F)nc2N2CCC(c3nn[nH]n3)CC2)cc1

Outgoing:
["> 2 µM", "< 0.5 µM", "0.5 to 2 µM", "0.5 to 2 µM", "< 0.5 µM", "< 0.5 µM", "0.5 to 2 µM", "< 0.5 µM"]

Hi team, please reply with IC50 for each item in this list.
1. O=C(O)C1CCN(c2nc(CCC(F)(F)F)cnc2-c2ccc3c(c2)OC(F)(F)O3)CC1
2. CCCCc1cnc(-c2ccc(OC)cc2)c(N2CCC(C(=O)NS(C)(=O)=O)CC2)n1
3. O=C(O)C1CCN(c2nc(COCC(F)(F)F)cnc2-c2cnc3c(c2)CCO3)CC1

Outgoing:
1: 0.5 to 2 µM; 2: < 0.5 µM; 3: > 2 µM

---

# SYSTEM: H. sapiens SLC2A9 variant 2 (GLUT9B) (Homo sapiens, UniProt Q9NRM0)
# Sequence (Q9NRM0 1-511 isoform Q9NRM0-2): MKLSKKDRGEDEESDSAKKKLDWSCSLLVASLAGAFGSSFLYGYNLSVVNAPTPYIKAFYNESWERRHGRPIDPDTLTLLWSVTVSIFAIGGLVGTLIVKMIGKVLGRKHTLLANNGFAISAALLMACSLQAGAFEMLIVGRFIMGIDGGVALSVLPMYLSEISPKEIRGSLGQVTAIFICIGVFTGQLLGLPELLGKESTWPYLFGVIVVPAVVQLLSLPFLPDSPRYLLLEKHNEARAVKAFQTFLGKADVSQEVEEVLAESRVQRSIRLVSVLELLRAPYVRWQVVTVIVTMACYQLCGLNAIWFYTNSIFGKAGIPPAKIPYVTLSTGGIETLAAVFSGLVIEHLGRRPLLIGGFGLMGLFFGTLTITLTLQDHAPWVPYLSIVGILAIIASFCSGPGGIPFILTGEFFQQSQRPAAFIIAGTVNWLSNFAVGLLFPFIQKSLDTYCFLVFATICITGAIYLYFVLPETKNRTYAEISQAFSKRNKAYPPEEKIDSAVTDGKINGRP
# ASSAY_TEXT: GLUT9 functional assay: uric acid uptake in HEK293T cells, allantoin formation by MS/MS as proxy of GLUT9B inhibition
# Type: cell-based
# ASSAY_SETUP: 15 minute assay; HEK293T cells stably expressing GLUT9B and transiently A. oryzae uricase; uric acid 0.3 mM, 37° C.; read-out: 15 min IC50
EXPERIMENTAL_READOUT: IC50

* Fc1cc(-c2ncc(CCC(F)(F)F)nc2N2CCC(c3nn[nH]n3)CC2)cc2ccoc12 | < 500 nM
* O=C(O)C1CCN(c2nc(CCC(F)(F)F)cnc2-c2ccc3c(c2)OCCO3)CC1 | 500 to 2000 nM

Hi team, please reply with IC50 for each item in this list.
1. COCCOc1ccc(-c2ncc(CCC(F)(F)F)nc2N2CCC(C(=O)O)CC2)cn1
2. CS(=O)(=O)NC(=O)C1CCN(c2nc(COCC(F)(F)F)cnc2-c2cc(F)c3occc3c2)CC1
3. O=C(O)C1CCN(c2nc(CCCCC(F)(F)F)cnc2-c2ccc(OCC3CC3)cc2)CC1
4. CS(=O)(=O)CCc1cnc(-c2cc(F)c3occc3c2)c(N2CCC(C(=O)O)CC2)n1
5. O=C(O)C1CCN(c2nc(COCC(F)(F)F)cnc2-c2ccc3oc(F)cc3c2)CC1

Outgoing:
1. > 2000 nM
2. 500 to 2000 nM
3. < 500 nM
4. > 2000 nM
5. > 2000 nM
